Attribute: IC50
# Test system: NCI-H292
# measurementNotes: Cytotoxicity against human NCI-H292 cells after 72 hrs by MTT assay
# Type: functional, cell-based
# appliedConditions: NCI-H292, 72 h
Answer with a number only, understood to be in nM.

Task: Supply measured IC50 of C/C=C(/C)C(=O)OC[C@H]1c2c(O)c(OC)c(C)c(OC(=O)/C=C/c3ccccc3)c2C[C@H]2[C@H]3C4=C(C[C@H]([C@H](C#N)N12)N3C)C(=O)C(C)=C(OC)C4=O in your reply.
Result: 12

Task: Consider the molecule C/C=C(/C)C(=O)OC[C@H]1c2c(O)c(OC)c(C)c(OC(=O)CCC)c2C[C@H]2[C@H]3C4=C(C[C@H]([C@H](C#N)N12)N3C)C(=O)C(C)=C(OC)C4=O . State its measured IC50.
Result: 6.7

----------
Entries and their IC50 values follow.
# Test system: NCI-H460
# measurementNotes: Cytotoxicity against human NCI-H460 cells after 72 hrs by MTT assay
# Type: functional, cell-based
# appliedConditions: NCI-H460, 72 h
The answer is to be given in nM; state only the numeric part.

Worked cases, IC50 given:
[[record]]
cpdsmiles = "C/C=C(/C)C(=O)OC[C@H]1c2c(O)c(OC)c(C)c(OC(=O)c3ccc4ncccc4c3)c2C[C@H]2[C@H]3C4=C(C[C@H]([C@H](C#N)N12)N3C)C(=O)C(C)=C(OC)C4=O"
reportedendpoint = "IC50"
unitsofmeasure = "nM"
measuredvalue = 45

[[record]]
cpdsmiles = "COc1cc2c(cc1O)CCN[C@]21CS[C@@H]2c3c(OC(C)=O)c(C)c4c(c3[C@H](COC1=O)N1[C@@H]2[C@H]2c3c(cc(C)c(OC)c3O)C[C@H]([C@@H]1C#N)N2C)OCO4"
reportedendpoint = "IC50"
unitsofmeasure = "nM"
measuredvalue = 1.2

[[record]]
cpdsmiles = "C/C=C(/C)C(=O)OC[C@H]1c2c(c(O)c(C)c3c2OCO3)C[C@H]2[C@H]3C4=C(C[C@H]([C@H](C#N)N12)N3C)C(=O)C(C)=C(OC)C4=O"
reportedendpoint = "IC50"
unitsofmeasure = "nM"
measuredvalue = 36

[[record]]
cpdsmiles = "C/C=C(/C)C(=O)OC[C@H]1c2c(O)c(OC)c(C)c(OC(=O)CNC(=O)OC(C)(C)C)c2C[C@H]2[C@H]3C4=C(C[C@H]([C@H](C#N)N12)N3C)C(=O)C(C)=C(OC)C4=O"
reportedendpoint = "IC50"
unitsofmeasure = "nM"
measuredvalue = 6


// next item, IC50 requested
Task: // fetch IC50 given entry C/C=C(/C)C(=O)OC[C@H]1c2c(O)c(OC)c(C)c(OC(=O)/C=C/c3ccc(F)cc3)c2C[C@H]2[C@H]3C4=C(C[C@H]([C@H](C#N)N12)N3C)C(=O)C(C)=C(OC)C4=O
Result: 17

----------
# Tested on: NCI-H460
# measurementNotes: Cytotoxicity against human NCI-H460 cells after 72 hrs by MTT assay
# Format: functional, cell-based
# appliedConditions: NCI-H460, 72 h
reportedEndpoint: IC50 (nM)
Response body: numeric value in nM, unit text excluded.

[[record]]
cpdsmiles = "C/C=C(/C)C(=O)OC[C@H]1c2c(O)c(OC)c(C)c(OC(=O)CCCCC)c2C[C@H]2[C@H]3C4=C(C[C@H]([C@H](C#N)N12)N3C)C(=O)C(C)=C(OC)C4=O"
measuredvalue = 15

[[record]]
cpdsmiles = "C/C=C(/C)C(=O)OC[C@H]1c2c(O)c(OC)c(C)c(OC(=O)c3ccncc3)c2C[C@H]2[C@H]3C4=C(C[C@H]([C@H](C#N)N12)N3C)C(=O)C(C)=C(OC)C4=O"
measuredvalue = 11


Now for a further compound.
Task: Please list IC50 recorded for the compound C/C=C(/C)C(=O)OC[C@H]1c2c(O)c(OC)c(C)c(OC(=O)c3ccccn3)c2C[C@H]2[C@H]3C4=C(C[C@H]([C@H](C#N)N12)N3C)C(=O)C(C)=C(OC)C4=O
Result: 26
